Measured IC50, listed per entry.
- TESTED_TARGET: Metabotropic glutamate receptor 1 (Rattus norvegicus)
- Sequence (P23385 whole entry): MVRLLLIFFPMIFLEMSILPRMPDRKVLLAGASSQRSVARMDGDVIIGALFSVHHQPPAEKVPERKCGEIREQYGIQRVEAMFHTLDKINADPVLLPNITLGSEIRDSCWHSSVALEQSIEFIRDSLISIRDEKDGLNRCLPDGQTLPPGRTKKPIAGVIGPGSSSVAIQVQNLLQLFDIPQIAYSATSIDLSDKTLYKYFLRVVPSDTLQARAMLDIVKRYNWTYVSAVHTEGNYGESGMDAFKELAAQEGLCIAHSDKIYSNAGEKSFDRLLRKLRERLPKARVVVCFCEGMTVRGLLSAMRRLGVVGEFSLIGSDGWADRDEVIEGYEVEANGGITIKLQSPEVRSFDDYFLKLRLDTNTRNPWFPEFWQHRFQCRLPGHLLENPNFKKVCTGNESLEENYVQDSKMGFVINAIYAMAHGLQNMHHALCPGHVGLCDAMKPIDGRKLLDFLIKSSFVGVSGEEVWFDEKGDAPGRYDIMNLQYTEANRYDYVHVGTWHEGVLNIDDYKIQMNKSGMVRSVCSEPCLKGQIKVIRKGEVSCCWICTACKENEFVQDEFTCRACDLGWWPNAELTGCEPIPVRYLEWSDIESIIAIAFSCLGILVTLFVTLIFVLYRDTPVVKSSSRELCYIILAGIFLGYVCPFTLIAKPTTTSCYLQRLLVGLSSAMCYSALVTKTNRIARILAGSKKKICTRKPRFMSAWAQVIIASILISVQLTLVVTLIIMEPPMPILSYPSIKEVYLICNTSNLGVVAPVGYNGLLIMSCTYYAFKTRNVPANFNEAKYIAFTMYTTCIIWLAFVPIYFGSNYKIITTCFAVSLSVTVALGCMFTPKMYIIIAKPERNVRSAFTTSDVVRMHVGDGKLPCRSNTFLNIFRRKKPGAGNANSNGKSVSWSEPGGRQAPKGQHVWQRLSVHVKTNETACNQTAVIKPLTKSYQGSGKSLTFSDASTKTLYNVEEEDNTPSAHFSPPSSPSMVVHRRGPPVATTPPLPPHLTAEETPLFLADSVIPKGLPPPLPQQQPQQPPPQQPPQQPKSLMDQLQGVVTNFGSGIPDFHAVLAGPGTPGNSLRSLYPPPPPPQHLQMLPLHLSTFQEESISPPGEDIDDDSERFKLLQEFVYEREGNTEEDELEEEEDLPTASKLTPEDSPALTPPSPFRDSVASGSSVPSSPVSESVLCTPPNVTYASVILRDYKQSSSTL
- ASSAY_REMARKS: Allosteric antagonist activity at mGluR1 in Sprague-Dawley rat cerebellar granule cells assessed as accumulation of [3H]inositol phosphate by liquid scintillation counting

Solved entries (count: 2):
>>> val("CCCCC1CCC(C(=O)Oc2ccc(C(C)=O)cc2)CC1 (stereo not drawn)")
"> 40 µM"
>>> val("CCCCCCOc1ccc(C(=O)Oc2ccc(C3CCCCC3)cc2)cc1")
"> 40 µM"

Field request: IC50 | item: `COc1ccc(C(=O)c2ccc(C(=O)c3ccc(C)c(OC)c3)cc2)cc1C`
> 40 µM
